Test system: BT-549 breast
test.details: NCI-60 one-dose screen, 48 h (100 = growth as untreated, 0 = no growth, -100 = all killed)
condition.label: 10 µM unless noted
This is part of a sample that, as a whole, favours compounds with a hit. Of some 83,000 tested, about 20% had one in any assay.
quantity: growth (%)
Give bare numbers, in %.

# annotated cases, reported growth shown
compound | display.unit | test.value
CCC(=O)Oc1ccc(-c2ccccc2)cc1Br | % | 109
Cc1cccc(/C=C2\CN(C(=O)OC(C)(C)C)C/C(=C\c3cccc(C)c3)C2=O)c1 | % | 105
Nc1ncnc2c1C(c1ccc(Br)cc1)c1sc3c(F)cccc3c1O2 (configuration not stated) | % | 100
COc1c(C(=O)Nc2ccc(C)c(Br)c2)ccc2ccccc12 | % | 101
CCCCCN1C(=O)/C(=c2\sc3n(c2=O)C2C(NN=3)N(CC)C(=O)N2CC)c2ccccc21 (configuration not stated) | % | 19.5

Please look at the items below and tell me growth for each one, in order.
1. C=C1C(=O)O[C@H]2[C@H]1CC/C(COC(=O)C(=O)c1cn(C)c3ccc(Cl)cc13)=C\CC[C@@]1(C)O[C@@H]21
2. CCN1C(=S)N(c2ccccc2)C2C1NN=c1s/c(=C3\C(=O)N(C(C)C)c4ccccc43)c(=O)n12 (configuration not stated)

1: -74.5; 2: 96.6

---

Test system: SK-MEL-28 melanoma
test.details: NCI-60 one-dose screen, 48 h (100 = growth as untreated, 0 = no growth, -100 = all killed)
condition.label: 10 µM unless noted
About 83,000 compounds went through this panel and 20% of them were active in at least one assay; those are over-represented in the sample as a whole. Calls of active or inactive are those of the source. Rule for the calls: active = growth percent below 10; inactive = the rest.
quantity: growth

compound | test.value
CCCC/C=C/[C@@H]1C[C@H]1CCO | 98.1% (inactive)
CN(C)c1ccc(-c2c(C#N)c(N)nn2C(=O)c2ccc(NC(=O)c3ccccn3)cc2)cc1 | 108% (inactive)
CCOC(=O)c1ccc(NC(=O)c2nc(-c3cc(OC)c(OC)c(OC)c3)n(-c3ccc(Cl)cc3)n2)cc1 | 95% (inactive)

Please look at the items below and tell me growth for each one, in order.
1. COc1ccc(-c2cc(-c3cc(OC)c(OC)c(OC)c3)c(C#N)c(=O)n2CCCCC(=O)NO)cc1
2. Cc1cccc(/C=C2\CN(C(=O)OC(C)(C)C)C/C(=C\c3cccc(C)c3)C2=O)c1
3. COC(=O)[C@]1(C)CCC[C@]2(C)[C@H]3C[C@H]4C(C(C)C)=C[C@]3(CC[C@H]21)[C@@H]1C(=O)CC[C@H](OCCC#N)[C@@H]14
4. N#Cc1c(-c2ccccc2)[nH]c2ncc(-c3ccccc3)n2c1=O
5. C=C(C)[C@@H]1CC[C@]2(C(=O)N3CCOCC3)CC[C@]3(C)[C@H](CC[C@@H]4[C@@]5(C)C/C(=C/c6ccncc6)C(=O)C(C)(C)[C@@H]5CC[C@]43C)[C@@H]12
6. CCOC(=O)c1cc2c(n1C)-c1nc(NC(C)=O)sc1CCC2
7. O=c1scc(-c2ccc(C(F)(F)F)cc2)s1

1: 76.8% (inactive); 2: 104% (inactive); 3: 101% (inactive); 4: 102% (inactive); 5: 74% (inactive); 6: 107% (inactive); 7: 102% (inactive)

Please look at the items below and tell me growth for each one, in order.
1. Cc1ccccc1/C=C/C(=O)c1cccc(OCCCOc2cccc(C(=O)/C=C/c3ccccc3C)c2)c1
2. CC/C(=C(/c1ccc(Cl)cc1)c1ccc(OCCN(C)C)cc1)c1ccc(Cl)cc1
3. CCOC(=O)c1c(C(=O)c2cn(C)c3ccc(Br)cc23)c(-c2cn(C)c3ccc(Br)cc23)n(NC(=O)OC(C)(C)C)c1C
4. O=C(c1ccccc1)c1ccc(C2CCCCC2)cc1

1: 112% [3 µM] (inactive); 2: 90.3% (inactive); 3: 107% [100 µM] (inactive); 4: 103% (inactive)

---

System: SNB-75 CNS
test.details: NCI-60 one-dose screen, 48 h (100 = growth as untreated, 0 = no growth, -100 = all killed)
condition.label: 10 µM unless noted
Method: Growth inhibition of the SNB-75 human tumor cell line is measured as a screen for anti-cancer activity. Cells are grown in 96 well plates and exposed to the test compound for 48 hours. Compounds are tested at a single concentration, which is 10^-5 M for most compounds. The reported endpoint is percent growth (GI% or GIPRCNT), where numbers from 0 - 100% represent growth inhibition, and numbers from -100% - 0 represent cell death. For example, a value of 40 represents 60% growth inhibition. […]
This is part of a sample that, as a whole, favours compounds with a hit. Of some 83,000 tested, about 20% had one in any assay.
quantity: growth (%)
One number for each entry, in %.

Please look at the items below and tell me growth for each one, in order.
1. COc1ccc(Nc2nc(-c3cc(O)c(C)c(C)c3O)cs2)cc1
2. CSc1oc(C)nc1[P+](c1ccccc1)(c1ccccc1)c1ccccc1
3. CCOC(=O)[C@@H]1CSC(CC)=C(C(=O)O)N1
4. O=C(Nc1nc(-c2ccc(Cl)cc2)nc2c1sc(=S)n2-c1ccccc1)C(F)(F)F
5. CCOC(=O)C1=C(N)Oc2c(sc3c(F)cccc23)C1c1ccc(O)cc1 (stereo not drawn)

1: 78.8; 2: 75.9; 3: 115; 4: -44.1; 5: 31.3

Please look at the items below and tell me growth for each one, in order.
1. COc1ccc(NC(=O)c2sc3nc(C)c(C(=O)/C=C/c4ccccc4)cc3c2N)cc1
2. CC1(C)COB(OCC(C)(C)COB2OCC(C)(C)CO2)OC1
3. C#CCOC(=O)/C=C/c1cn(-c2ccccc2)nc1-c1ccc(OC)cc1
4. CSc1nc(N)c(NS(=O)(=O)c2ccc(C(C)=O)cc2)c(=O)[nH]1
5. COC(=O)/C=C1/SC(=Nc2cccc(OC)c2)N(CCc2c[nH]c3ccc(O)cc23)C1=O
6. CC(C)C1=NOC(=O)C1=Cc1cn(-c2ccccc2)nc1-c1ccc(F)cc1
7. COCCOc1cc2ncnc(N3CCN(c4cc(S(C)(=O)=O)c(C)cc4Cl)CC3)c2cc1OCCOC

1: 12.2; 2: 107; 3: 66.6; 4: 87.6; 5: 71; 6: 70.6; 7: 98.8

Would you mind telling me what growth value was observed for COc1ccc(/C=C(\C#N)n2nnc3cc(Cl)ccc32)cc1 ?
-47.6

---

System: MOLT-4 leukemia
test.details: NCI-60 one-dose screen, 48 h
condition.label: 10 µM unless noted
About 83,000 compounds went through this panel and 20% of them were active in at least one assay; those are over-represented in the sample as a whole. Calls of active or inactive are those of the source. Rule for the calls: active = growth percent below 10; inactive = the rest.
The categories you may choose from are active, inactive

Worked examples, 6 compounds total:
compound | class.name
CCOC(=O)c1c(C(=O)c2cn(C)c3ccc(Br)cc23)c(-c2cn(C)c3ccc(Br)cc23)n(NC(=O)OC(C)(C)C)c1C | inactive
C[PH+](c1nc2ccccc2nc1[PH+](C)C(C)(C)C)C(C)(C)C.C[PH+](c1nc2ccccc2nc1[PH+](C)C(C)(C)C)C(C)(C)C.[Au+].[Cl-] (stereo not given) | active
CCCCCCCCCCCCCCCCOCCCOP(=O)(O)C1CCCN(O)C1=O (stereo not given) | active
Cc1cc(C(=O)O)c(C)n1-c1cccc(C(=O)O)c1 | inactive
N#Cc1c(-c2ccc(Cl)cc2)c(C#N)c2c(C#N)c(N)nn2c1N | inactive
COc1ccc(OC)c(-c2nc(SCC(=O)c3ccc(C#N)cc3)[nH]c(=O)c2C#N)c1 | inactive

Please share the test call associated with CC(=O)Oc1ccc(N2C(=O)C(Cl)=C(Nc3cccc(C(F)(F)F)c3)C2=O)cc1 .
inactive

Please share the test call associated with Cc1ccc(Nc2cc(N)nc(N)n2)cc1Cl .
inactive

Please share the test call associated with O=C(Nc1ccc(Oc2cccc(F)c2)c(Cl)c1)c1cccnc1 .
inactive

Please share the test call associated with Cc1ccccc1/C=C/C(=O)c1cccc(OCCCCOc2cccc(C(=O)/C=C/c3ccccc3C)c2)c1 .
inactive

Please share the test call associated with CCOc1nc(-c2ccccc2)cc2c(O)c(C(=O)N/N=C/c3ccccc3)[nH]c(=O)c12 .
inactive

Please share the test call associated with COc1ccc(NC2=C(I)C(=O)c3ncccc3C2=O)cc1 .
active

Please share the test call associated with Cc1c(-c2ccc(O)cc2)n(Cc2ccc(OCCN3CCCCCC3)cc2)c2ccc(O)cc12 .
inactive

Please share the test call associated with COc1ccc(-c2cc(-c3ccc(Cl)cc3)c(C#N)c(=O)n2Cc2ccc(C(=O)Nc3ccccc3N)cc2)cc1 .
inactive

Please share the test call associated with O=S(=O)(Nc1ccc(F)cc1F)c1ccc(-c2cnc(C3CC3)o2)cc1 .
inactive

---

Tested on: SW-620 colon
test.details: NCI-60 one-dose screen, 48 h
condition.label: 10 µM unless noted
Compounds without any hit were thinned out: in the full panel of roughly 83,000, 20% have a hit. Active and inactive are the calls of the source. Rule for the calls: active = growth percent below 10; inactive = the rest.
The categories you may choose from are active, inactive

Worked examples, 6 molecules total:
molecule | class.name
O=C(/C=C/c1cccs1)Nc1ncc(Cc2ccccc2F)s1 | inactive
O=C(c1ccccc1)c1ccc(C2CCCCC2)cc1 | inactive
COc1ccc(-c2cc(-c3cc(OC)c(OC)c(OC)c3)c(C#N)c(=O)n2CCCCC(=O)NO)cc1 | inactive
CC(=O)/C(=C\c1c(-c2ccccc2)[nH]c2ccccc12)S(C)(=O)=O | inactive
C/C(Cc1ccc(Cl)cc1)=C(\c1ccc(O)cc1)c1ccc(Cl)cc1 | inactive
Cc1ccc2c(Cn3cc(CSc4nc5ccccc5o4)nn3)cc(=O)oc2c1 | inactive

Please share the test call associated with O=C1C(Cl)=C(NCCCCCCNC2=C(Cl)C(=O)c3ccccc3C2=O)C(=O)c2ccccc21 .
inactive

Please share the test call associated with Cc1cc(=O)oc2cc(OCc3nn4c(Nc5nc6ccccc6s5)c(-c5ccccc5)nc4s3)ccc12 .
inactive

Please share the test call associated with CC(=O)O[C@@H]1C[C@]2(C(C)C)O[C@@]1(C)[C@@H]1CCC(C)=C1[C@@H]2OC(=O)/C=C/c1ccccc1 .
inactive

Please share the test call associated with C=CC[Se]C(=O)Cc1c(C)n(C(=O)c2ccc(Cl)cc2)c2ccc(OC)cc12 .
active

Please share the test call associated with Cc1ccc(-c2nc([P+](c3ccccc3)(c3ccccc3)c3ccccc3)c(S(=O)(=O)c3ccc(C)cc3)o2)cc1 .
active

Please share the test call associated with C1CCC([PH+](C2CCCCC2)C2CCCCC2[PH+](C2CCCCC2)C2CCCCC2)CC1.[Au].[CH-]1CCCCC1C1CCCC[N-]1 (stereo unspecified) .
active

These measurements were taken from PubChem BioAssay (NCI).
